# Test system: MS2 coat protein
# Test description: apparent KD of MS2 coat protein; designed switch direction (-1 OFF switch, 1 ON switch): -1; higher = weaker reporter binding
# Stated conditions: input ligand: none
Response key: Yes means apparent KD of MS2 coat protein >= 20 nM; No means apparent KD of MS2 coat protein < 20 nM.

# Input sequence, Category label
records = [
    ("GAAAACCGGUGAGGAUAUUUAUAAUAGAGCUUUAUGAUAUACAUGAGGAUCACCCAUGUUACUUUAAAGAAGGCAUCGGAAAAG [Mat - Exclusion NG 2 - Mod of JL - D94] (Eterna round: R96, puzzle: Exclusion NG 2)", "No"),
    ("AUUUUGUCAGGAUAUUAGUAGUAAAUAAAUAAAAUUAUUACUGAGAAGGGACAUGAGGAUCACCCAUGUGUCUU [Salish 062 v9] (Eterna round: R97, puzzle: Exclusion 4)", "No"),
    ("AGCGUGUUAGGAUAUACACGACACUGGGUAGCGGGUGGAGGGUAGAAGGGACAUGAGGAUCACCCAUGUUCGGG [Ortere] (Eterna round: R97, puzzle: Exclusion 4)", "Yes"),
    ("GGACGGUAAGUGAGGAUAUGCUCUACCUCGGUAGAGCAGAAGGCACAUGAGGAUCACCCAUGUGAAAACUGUUC [Omei Ex4B B31] (Eterna round: R97, puzzle: Brourd's mod of Exclusion 4)", "No"),
    ("UUCUGGACAGGAUAUGUACUUGAGCACUUGAGGAUCACCCAAGUCUUCAAGUACUCAGGCACAGAAGGGUUAAUUU [jl-ex5.4.66 ViennaUCT mod] (Eterna round: R97, puzzle: Exclusion 5)", "Yes"),
    ("UGCAGUGAUCCAGAAUGUUACAUGAGGAUCACCCAUGUUAGUAUUGUUUAGUUGUAUAAGUUUGUUGUUCGUUUUAU [JR_STOV1_v2_Sub079] (Eterna round: R97, puzzle: Sensor, turn-off variant 1)", "Yes"),
    ("UGAGUGGUGCGAGGAUAUACAUGAGGAUCACCCAUGUAAACGUGUGAGGCUUUGCCUCACACGAUGUAGAAGGCGCACUACUCU [Mat - Exclusion NG 2 - Mod of JL - D13] (Eterna round: R96, puzzle: Exclusion NG 2)", "No"),
    ("GCAGAAAGUGUAGGAUAUCUAAUAAAGCGGAAACGCAAGACAUGAGGAUCACCCAUGUGUCCGGAAGAGAAGGGCAAAAGCUGC [EXNG2 V2 c] (Eterna round: R96, puzzle: Exclusion NG 2)", "Yes"),
    ("AUAAAGCAAGCAUGGUCCCACAUGAGGAUCACCCAUGUGUUCGUCUUAUAGGCUGCUGAGGCUUUUGCCUCGGUGGC [LRO Sensor-off var1-07 loose mod of D91 from Mat747] (Eterna round: R97, puzzle: Sensor, turn-off variant 1)", "Yes"),
    ("GGUGCACAUGAGGAUCACCCAUGUCAGGAUAUGUUACCACGUUACGAUCGAGUGACGAGCAGAAGGGACUGCAU [Eternabot (L2) Solution 68] (Eterna round: R97, puzzle: Exclusion 1)", "Yes"),
]

Given UACUUCUGAGGAUAUACAUAGAUUUACAUGAGGAUCACCCAUGUUCCUCUUUGUAUAAAUGUAGAAGGCAGAAGAU [Mat - Exclusion 5 - JL Mod - D74] (Eterna round: R97, puzzle: Exclusion 5) , state whether its apparent KD of MS2 coat protein is at least 20 nM.
Yes

Determine whether this sequence has apparent KD of MS2 coat protein no lower than 20 nM: GGUCAGACGGUAGGAUAUCUAUAUCGAGUGACCCUUUCAUAACAUGAGGAUCACCCAUGUCGGUGGGAGAAGGGCCGUACGGCG [salish99_ExNG02_R04_007] (Eterna round: R96, puzzle: Exclusion NG 2)
Yes
